study target: human glucagon receptor (human, UniProt P47871 26-477)
Sequence (P47871 26-477): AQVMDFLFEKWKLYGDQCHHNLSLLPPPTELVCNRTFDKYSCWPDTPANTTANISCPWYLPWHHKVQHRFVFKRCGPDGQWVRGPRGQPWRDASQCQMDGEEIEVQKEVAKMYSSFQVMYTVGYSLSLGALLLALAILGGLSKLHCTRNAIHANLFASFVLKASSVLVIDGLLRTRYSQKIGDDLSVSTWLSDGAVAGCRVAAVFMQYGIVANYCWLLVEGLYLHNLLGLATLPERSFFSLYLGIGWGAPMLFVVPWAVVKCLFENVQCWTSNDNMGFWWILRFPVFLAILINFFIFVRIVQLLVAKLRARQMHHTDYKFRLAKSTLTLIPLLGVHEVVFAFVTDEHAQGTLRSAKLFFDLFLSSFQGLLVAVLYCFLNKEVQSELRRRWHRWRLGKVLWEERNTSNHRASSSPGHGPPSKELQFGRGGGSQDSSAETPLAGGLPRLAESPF
assay text: cell-based or functional assay
Positions of bridges follow the written chain, without caps; N, C: chain ends. Non-standard residues stand in square brackets, D forms with d. No end group written: not given here. Aib = CC(C)(N)C(=O)O
observable: in vitro activity (%, relative to SEQ ID NO: 1); cAMP assay, from EC50 (%)

Solved entries (count: 2):
binder: Y[Aib]QGTFCSDYSKYLDERRAKDFVQWLMNT (lactam 16-20) [glucagon derivative of SEQ ID NO: 41]
assay result: 45.2
//
binder: Y[Aib]QGTFTSDCSKYLDERRAKEFVQWLMNT (lactam 16-20) [glucagon derivative of SEQ ID NO: 36]
assay result: 9.9

I: Y[Aib]QGTFTSDYSKYLDCKRAKEFVQWLMNT (lactam 17-21) [glucagon derivative of SEQ ID NO: 31]
II: Y[Aib]QGTFCSDYSKYLDERRAKEFVQWLMNT (lactam 16-20) [glucagon derivative of SEQ ID NO: 38]
Query: From the items above, decide which of I and II has the lower in vitro activity (%, relative to SEQ ID NO: 1); cAMP assay, from EC50 reading. Mark your answer with the label of the selected entry.
Response: I
(I: 6.3%, II: 167%)
